Measurement protocol: in vivo
Experimental setup: male, Sprague-Dawley, rat, po
Endpoint label: bioavailability
Write your answer as a measured quantity: the number, then the unit.

CC(Cc1ccc(F)c(F)c1)NCCCc1cccc(NC(N)=O)c1 (stereo not shown)	8%
CC(Cc1ccc(F)c(F)c1)NCCCc1ccc(NC(N)=O)cc1 (stereo not shown)	94%

What value of measured bioavailability is listed for CC(Cc1ccc2nccnc2c1)NCCCc1ccc(C(N)=O)cc1 (stereo not shown) ?
8%

Sample CC(Cc1ccc(F)c(F)c1)NCCCc1ccc(S(N)(=O)=O)cc1 (stereo not shown) — what was its bioavailability?
94%

----------
Target entity: hERG channel (Homo sapiens)
Construct: purchased; host or cells: HEK-293 cells stably expressing hERG (membranes)
Sequence (Q12809 whole entry): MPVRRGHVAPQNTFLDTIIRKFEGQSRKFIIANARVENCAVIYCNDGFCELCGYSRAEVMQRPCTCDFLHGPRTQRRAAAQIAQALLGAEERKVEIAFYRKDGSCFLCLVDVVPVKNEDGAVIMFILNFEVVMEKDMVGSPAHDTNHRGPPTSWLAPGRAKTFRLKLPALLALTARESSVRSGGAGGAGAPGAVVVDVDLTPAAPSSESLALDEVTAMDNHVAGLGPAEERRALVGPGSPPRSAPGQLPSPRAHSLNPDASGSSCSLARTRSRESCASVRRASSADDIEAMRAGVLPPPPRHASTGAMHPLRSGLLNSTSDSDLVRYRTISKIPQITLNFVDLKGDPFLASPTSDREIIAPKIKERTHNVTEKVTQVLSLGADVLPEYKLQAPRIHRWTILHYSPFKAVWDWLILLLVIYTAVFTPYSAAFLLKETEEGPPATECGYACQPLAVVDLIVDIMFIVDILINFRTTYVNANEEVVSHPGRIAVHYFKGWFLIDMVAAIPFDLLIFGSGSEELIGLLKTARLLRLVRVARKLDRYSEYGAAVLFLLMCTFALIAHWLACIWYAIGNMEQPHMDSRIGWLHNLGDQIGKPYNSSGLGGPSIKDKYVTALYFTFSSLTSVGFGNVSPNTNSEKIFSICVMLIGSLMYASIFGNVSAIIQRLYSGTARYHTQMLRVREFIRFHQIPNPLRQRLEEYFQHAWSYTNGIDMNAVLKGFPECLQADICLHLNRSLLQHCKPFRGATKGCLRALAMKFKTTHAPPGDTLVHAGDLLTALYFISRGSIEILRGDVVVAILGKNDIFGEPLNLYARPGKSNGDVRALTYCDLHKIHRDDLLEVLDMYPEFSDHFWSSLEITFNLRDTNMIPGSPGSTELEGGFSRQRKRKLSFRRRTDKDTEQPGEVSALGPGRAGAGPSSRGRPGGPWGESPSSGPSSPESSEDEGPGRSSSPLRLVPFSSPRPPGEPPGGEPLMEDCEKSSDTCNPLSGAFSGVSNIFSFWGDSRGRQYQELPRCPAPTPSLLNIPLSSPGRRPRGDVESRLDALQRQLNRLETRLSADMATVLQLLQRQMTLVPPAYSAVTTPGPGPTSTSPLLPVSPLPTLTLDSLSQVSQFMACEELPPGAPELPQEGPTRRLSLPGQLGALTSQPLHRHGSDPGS
Measurement protocol: [3H]Dofetilide binding assay, HEK-293 cell membrane preparation
Experimental setup: hERG Binding: Mean Ki (nM), [3H]dofetilide binding, HEK-293 membranes; mean of n>=3 unless N given
Recorded Ki, one value per entry.
Numeric answer only, unit nM assumed.

Examples from the recorded data:
CC(Cc1ccc(F)c(F)c1)NCCCc1cccc(S(N)(=O)=O)c1 (stereo not shown)	2010
CC(Cc1ccc(F)cc1)NCCCc1cccc(N)c1 (stereo not shown)	6390
CC(Cc1ccc(F)c(F)c1)NCCCc1ccc(OC(C)C)cc1 (stereo not shown)	818
CC(Cc1ccc(F)c(F)c1)NCCCc1cccc(Cl)c1 (stereo not shown)	1000
CC(Cc1ccc(F)c(F)c1)NCCCc1cccc(NC(N)=O)c1 (stereo not shown)	4380

Query (compound): CC(Cc1ccc(F)c(F)c1)NCCCc1cccc(-c2ccnn2C)c1 (stereo not shown) ; field requested: Ki
592

Record request: Ki value, item CC(Cc1ccc(F)c(F)c1)NCCCc1ccc(C(C)(C)C)cc1 (stereo not shown)
2190

Query: Ki; subject: CC(Cc1ccc(F)cc1)NCCCc1ccc(Cl)c(N)c1 (stereo not shown)
1440

Which Ki value is on record for CC(Cc1ccc(F)c(F)c1)NCCCc1ccc(Cl)cc1Cl (stereo not shown) ?
279

Consider the compound CC(Cc1c[nH]c2ccccc12)NCCCc1ccc(F)cc1 (stereo not shown) [Compound 277] and give its measured Ki.
732

Field request: Ki | item: CC(Cc1ccc(F)c(F)c1)NCCCc1cc(Cl)cc(Cl)c1 (stereo not shown)
1500

Need Ki, item CC(Cc1ccc(F)cc1)NCCCc1ccc([N+](=O)[O-])c(C(F)(F)F)c1 (stereo not shown)
535

I would be grateful if you could share the reported Ki for CC(Cc1ccc(F)c(F)c1)NCCCc1ccc2ncsc2c1 (stereo not shown) .
1580

I would be grateful if you could share the reported Ki for CC(Cc1ccc(F)c(F)c1)NCCCc1ccccc1-c1ccnn1C (stereo not shown) .
2240
